Quick note: these are IC50 numbers for system: UniProtKB P01116
ENDPOINT: IC50 (µM)

C=C(C)[C@@H]1CC[C@]2(COC(=O)CCC(=O)O)CC[C@]3(C)[C@H](CC[C@@H]4[C@@]5(C)CC[C@H](OC(=O)c6c(F)ccc(F)c6C(=O)O)C(C)(C)[C@@H]5CC[C@]43C)[C@@H]12: 2.09
C=C(C)[C@@H]1CC[C@]2(C(=O)O)CC[C@]3(C)[C@H](CC[C@@H]4[C@@]5(C)CC[C@H](OC(=O)c6c(F)ccc(F)c6C(=O)O)C(C)(C)[C@@H]5CC[C@]43C)[C@@H]12: 15.7

###

TEST NAME: Solubility
I would appreciate it if you labelled entries yes when solubility is 400 µM or higher, otherwise no.

C=C(C)[C@@H]1CC[C@]2(C(=O)O)CC[C@]3(C)[C@H](CC[C@@H]4[C@@]5(C)CC[C@H](OC(=O)c6c(F)ccc(F)c6C(=O)O)C(C)(C)[C@@H]5CC[C@]43C)[C@@H]12: no
COc1cc(C(=O)O)c(C(=O)OC2CCC3(C)C(CCC4(C)C3CC=C3C5CC(C)(C)CCC5(C(=O)O)CCC34C)C2(C)C)cc1OC (centres unmarked): no
C#Cc1c(F)ccc2cc(O)cc(-c3ncc4c(N5CC6CCC(C5)N6)nc(OC[C@@]56CCCN5C[C@H](F)C6)nc4c3F)c12 [Compound 53, MRTX1133, reference compound]: no
C=C(C)[C@@H]1CC[C@]2(C(=O)O)CC[C@]3(C)[C@H](CC[C@@H]4[C@@]5(C)CC[C@H](OC(=O)c6sccc6C(=O)O)C(C)(C)[C@@H]5CC[C@]43C)[C@@H]12: no
C[C@H]1[C@H](C)CC[C@]2(C(=O)O)CC[C@]3(C)C(=CC[C@@H]4[C@@]5(C)CC[C@H](OC(=O)c6c(F)ccc(F)c6C(=O)O)C(C)(C)[C@@H]5CC[C@]43C)[C@H]12: yes

###

TEST NAME: Solubility
Output y for solubility not less than 400 µM; output n otherwise.

Cn1cnc(Cn2ccc3ccc(CNCc4[nH]c5ccccc5c4C4NC(=O)c5ccc(O)cc54)cc32)c1 (stereo not drawn) [Compound 54, BI2852, reference compound]: n
CC1(C)CC[C@]2(C(=O)O)CC[C@]3(C)C(=CC[C@@H]4[C@@]5(C)CC[C@H](OC(=O)c6ccsc6C(=O)O)C(C)(C)[C@@H]5CC[C@]43C)[C@@H]2C1: y
CC1(C)CC[C@]2(C(=O)O)CC[C@]3(C)C(=CC[C@@H]4[C@@]5(C)CC[C@H](OC(=O)c6c(F)ccc(F)c6C(=O)O)C(C)(C)[C@@H]5CC[C@]43C)[C@@H]2C1: y
COc1cc(C(=O)O)c(C(=O)O[C@H]2CC[C@]3(C)[C@H]4CC=C5[C@@H]6[C@@H](C)[C@H](C)CC[C@]6(C(=O)O)CC[C@@]5(C)[C@]4(C)CC[C@H]3C2(C)C)cc1OC: n
C=C(C)[C@@H]1CC[C@]2(COC(=O)CCC(=O)O)CC[C@]3(C)[C@H](CC[C@@H]4[C@@]5(C)CC[C@H](OC(=O)c6c(F)ccc(F)c6C(=O)O)C(C)(C)[C@@H]5CC[C@]43C)[C@@H]12: y

###

Test system: ERK phosphorylation in SNU-1 cells (K-RAS4B^G12D)
TEST NAME: HTRF ERK phosphorylation assay in SNU-1 cells
Format: cell-based
ASSAY CONTEXT: Homo sapiens, SNU1, read-out: SNU-1 pERK inhibition IC50
pIC50: −log10 of the molar value.
ENDPOINT: pIC50

C=C(C)[C@@H]1CC[C@]2(C(=O)O)CC[C@]3(C)[C@H](CC[C@@H]4[C@@]5(C)CC[C@H](OC(=O)c6cc(F)c(F)cc6C(=O)O)C(C)(C)[C@@H]5CC[C@]43C)[C@@H]12: < 3.52
C=C(C)[C@@H]1CC[C@]2(C(=O)O)CC[C@]3(C)[C@H](CC[C@@H]4[C@@]5(C)CC[C@H](OC(=O)c6ccccc6C(=O)O)C(C)(C)[C@@H]5CC[C@]43C)[C@@H]12: < 3.52
C=C(C)[C@@H]1CC[C@]2(C(=O)O)CC[C@]3(C)[C@H](CC[C@@H]4[C@@]5(C)CC[C@H](OC(=O)c6nccnc6C(=O)O)C(C)(C)[C@@H]5CC[C@]43C)[C@@H]12: < 3.00
C=C(C)[C@@H]1CC[C@]2(C(=O)O)CC[C@]3(C)[C@H](CC[C@@H]4[C@@]5(C)CC[C@H](OC(=O)c6cc(OC)c(OC)cc6C(=O)O)C(C)(C)[C@@H]5CC[C@]43C)[C@@H]12: < 3.52
C=C(C)[C@@H]1CC[C@]2(C(=O)O)CC[C@]3(C)[C@H](CC[C@@H]4[C@@]5(C)CC[C@H](OC(=O)c6c(F)ccc(F)c6C(=O)O)C(C)(C)[C@@H]5CC[C@]43C)[C@@H]12: 3.87

###

Entries and their pIC50 values follow.
Tested on: AKT phosphorylation in SNU-1 cells (K-RAS4B^G12D)
TEST NAME: HTRF AKT phosphorylation assay in SNU-1 cells
Format: cell-based
ASSAY CONTEXT: Homo sapiens, SNU1, read-out: SNU-1 pAKT inhibition IC50
pIC50: −log10 of the molar value.
ENDPOINT: pIC50

C=C(C)[C@@H]1CC[C@]2(C(=O)O)CC[C@]3(C)[C@H](CC[C@@H]4[C@@]5(C)CC[C@H](OC(=O)c6nccnc6C(=O)O)C(C)(C)[C@@H]5CC[C@]43C)[C@@H]12 [Compound 23]: 4.21
C=C(C)[C@@H]1CC[C@]2(C(=O)O)CC[C@]3(C)[C@H](CC[C@@H]4[C@@]5(C)CC[C@H](OC(=O)c6ccccc6C(=O)O)C(C)(C)[C@@H]5CC[C@]43C)[C@@H]12 [Compound 19]: 4.72
C=C(C)[C@@H]1CC[C@]2(C(=O)O)CC[C@]3(C)[C@H](CC[C@@H]4[C@@]5(C)CC[C@H](OC(=O)c6c(F)ccc(F)c6C(=O)O)C(C)(C)[C@@H]5CC[C@]43C)[C@@H]12 [Compound 24]: 4.89
C=C(C)[C@@H]1CC[C@]2(C(=O)O)CC[C@]3(C)[C@H](CC[C@@H]4[C@@]5(C)CC[C@H](OC(=O)c6cc(F)c(F)cc6C(=O)O)C(C)(C)[C@@H]5CC[C@]43C)[C@@H]12 [Compound 25]: 4.74
C=C(C)[C@@H]1CC[C@]2(C(=O)O)CC[C@]3(C)[C@H](CC[C@@H]4[C@@]5(C)CC[C@H](OC(=O)c6cc(OC)c(OC)cc6C(=O)O)C(C)(C)[C@@H]5CC[C@]43C)[C@@H]12 [Compound 26]: 4.08

###

STUDY TARGET: K-RAS4B^G12D (Homo sapiens, UniProt P01116, G12D)
Sequence (P01116 1-188 isoform P01116-2 G12D): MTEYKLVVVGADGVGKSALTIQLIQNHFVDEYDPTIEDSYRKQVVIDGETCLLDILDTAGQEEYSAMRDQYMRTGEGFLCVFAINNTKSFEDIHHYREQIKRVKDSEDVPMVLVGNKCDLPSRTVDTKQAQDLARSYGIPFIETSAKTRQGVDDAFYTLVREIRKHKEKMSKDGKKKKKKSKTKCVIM
Sequence (P01116 1-188 isoform P01116-2 G12D): as above
TEST NAME: cell-based
Set-up: a fusion protein of LgBiT and full-length RAS; a fusion protein of SmBiT(q) and full-length RAS in cells; expressed in transfected cells; host or cells: HEK239T (so in the source)
ASSAY CONTEXT: live cells; displacement of BI2852 from the K-Ras4B SI/II binding-site; read-out: K-RAS4B^G12D NanoBRET TE KD
ENDPOINT: Kd (µM)

C[C@H]1[C@H](C)CC[C@]2(C(=O)O)CC[C@]3(C)C(=CC[C@@H]4[C@@]5(C)CC[C@H](OC(=O)c6cc(F)c(F)cc6C(=O)O)C(C)(C)[C@@H]5CC[C@]43C)[C@H]12: 16.6
C=C(C)[C@@H]1CC[C@]2(COC(=O)CCC(=O)O)CC[C@]3(C)[C@H](CC[C@@H]4[C@@]5(C)CC[C@H](OC(=O)c6c(F)ccc(F)c6C(=O)O)C(C)(C)[C@@H]5CC[C@]43C)[C@@H]12: 26.4
